# ASSAY_COMMENT: NCI Yeast Anticancer Drug Screen. Data for the mlh1 rad18 strain (AID 175)
# SETTINGS: S. cerevisiae mlh1 rad18 strain growth inhibition; at 50.0 µM
This is part of a sample that, as a whole, favours compounds with a hit. Of some 79,000 tested, about 15% had one in any assay. Activity calls are given as the source filed them. No stated cut-off is given here; in the data, active means growth inhibition above about 70%; inactive means the rest. Where a SMILES comes first, the peptide text is derived from it. The star is where a group is joined. Fmoc = O=C(OCC1c2ccccc2-c2ccccc21)*; Boc = CC(C)(C)OC(=O)*
Use one of these outcomes when replying: active, inactive

INSERT INTO results (compound, class_label) VALUES
  ('COc1cc(/C=C2\CCc3ccccc3C2=O)ccc1O', 'active');

Inquiry: Give the logged outcome of this assay for the following compound: CC(C)(C)OC(=O)NCCCCC(NC(=O)OCC1c2ccccc2-c2ccccc21)C(=O)N1CCCC1C(=O)NCC(N)=O (stereo not drawn) (Fmoc-Lys(Boc)-Pro-Gly-NH2; configuration not given here)
Reply text: active

Inquiry: Give the logged outcome of this assay for the following compound: COC12CC(=O)C(C(C)=O)=C(O)C1(C)c1c(OC(C)=O)c(C)c(O)c(C(C)=O)c1O2 (stereo not given)
Reply text: active

Inquiry: Give the logged outcome of this assay for the following compound: O=[N+]([O-])c1ccc(CO)o1
Reply text: active

Inquiry: Give the logged outcome of this assay for the following compound: CCCCCCCCCCCCNC(=O)C[n+]1cccc(C(=O)Nc2ccccc2)c1
Reply text: active

Inquiry: Give the logged outcome of this assay for the following compound: COc1ccc(CC2c3cc4c(cc3CCN2C)OCO4)c(C=O)c1OC (stereo not given)
Reply text: inactive
